protocol: Half life in cynomolgus monkey at 1 mg/kg, iv
Assay type: ADME, organism-based, Macaca fascicularis
stated_conditions: in vivo

| line_notation | scale_unit | half-life |
| --- | --- | --- |
| COCc1cc(-c2cn(C3COC3)c3cnc(NC(C)=O)cc23)nc([C@]2(OC)CCOC2)c1 | h | 1.2 |

* * *

protocol: AUC (0 to infinity) in dog at 1 mg/kg,po
Format: ADME, organism-based, Canis lupus familiaris
Set-up: dose 1 mg/kg, route po
stated_conditions: in vivo

| line_notation | scale_unit | AUC(0-inf) |
| --- | --- | --- |
| COCc1cc(-c2cn(C3COC3)c3cnc(NC(C)=O)cc23)nc([C@]2(OC)CCOC2)c1 | ng·h/mL | 2300 |

* * *

measurement_target: CYP3A4 (Homo sapiens)
Sequence (P08684 whole entry): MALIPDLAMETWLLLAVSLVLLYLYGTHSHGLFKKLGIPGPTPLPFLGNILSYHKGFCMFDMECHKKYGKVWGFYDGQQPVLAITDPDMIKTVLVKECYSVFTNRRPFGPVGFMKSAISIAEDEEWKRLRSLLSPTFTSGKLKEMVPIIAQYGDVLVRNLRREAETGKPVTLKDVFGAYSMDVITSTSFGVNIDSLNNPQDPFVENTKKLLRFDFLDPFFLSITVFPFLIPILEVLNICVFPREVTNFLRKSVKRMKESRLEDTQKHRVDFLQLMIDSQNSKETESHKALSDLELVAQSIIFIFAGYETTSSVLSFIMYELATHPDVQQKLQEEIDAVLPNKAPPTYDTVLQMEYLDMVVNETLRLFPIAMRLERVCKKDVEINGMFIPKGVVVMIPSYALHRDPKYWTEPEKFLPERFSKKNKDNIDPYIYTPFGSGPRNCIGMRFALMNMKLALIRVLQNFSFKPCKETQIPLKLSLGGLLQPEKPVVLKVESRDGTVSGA
protocol: Induction of CYP3A4 in human hepatocytes assessed as maximum activation in mRNA level at 10 uM incubated for 24 hrs by RT-qPCR analysis relative to control
Type: ADME, cell-based, Hepatocyte
stated_conditions: read-out: max activation

| line_notation | Emax at 24 h, 10 µM (%) |
| --- | --- |
| CO[C@@]1(c2cc(O[C@@H](C)CCO)cc(-c3cn(C)c4cnc(NC(C)=O)cc34)n2)CCOC1 | 3 |
| CO[C@@]1(c2cc(OC(F)F)cc(-c3cn(C)c4cnc(NC(C)=O)cc34)n2)CCOC1 | 64 |
| CO[C@@]1(c2cc(OCC[C@@H](C)O)cc(-c3cn(C)c4cnc(NC(C)=O)cc34)n2)CCOC1 | 6 |
| CO[C@@]1(c2cc(C#N)cc(-c3cn([C@@H]4CC4(F)F)c4cnc(NC(C)=O)cc34)n2)CCOC1 | 40 |
| COCCOc1cc(-c2cn(C)c3cnc(NC(C)=O)cc23)nc([C@]2(OC)CCOC2)c1 | 42 |
| COc1cc(-c2cn(C3COC3)c3cnc(NC(C)=O)cc23)nc([C@]2(OC)CCOC2)c1 | 49 |
| CO[C@@]1(c2cc(C(F)F)cc(-c3cn(C)c4cnc(NC(C)=O)cc34)n2)CCOC1 | 23 |
| COCc1cc(-c2cn(C3COC3)c3cnc(NC(C)=O)cc23)nc([C@]2(OC)CCOC2)c1 | 2 |

* * *

protocol: Oral bioavailability in dog at 1 mg/kg
Format: ADME, organism-based, Canis lupus familiaris
stated_conditions: in vivo
quantity_name: bioavailability (%)

| line_notation | value_measured |
| --- | --- |
| COCc1cc(-c2cn(C3COC3)c3cnc(NC(C)=O)cc23)nc([C@]2(OC)CCOC2)c1 | 88 |

* * *

measurement_target: Non-receptor tyrosine-protein kinase TYK2 (Homo sapiens, UniProt P29597)
Sequence (P29597 whole entry): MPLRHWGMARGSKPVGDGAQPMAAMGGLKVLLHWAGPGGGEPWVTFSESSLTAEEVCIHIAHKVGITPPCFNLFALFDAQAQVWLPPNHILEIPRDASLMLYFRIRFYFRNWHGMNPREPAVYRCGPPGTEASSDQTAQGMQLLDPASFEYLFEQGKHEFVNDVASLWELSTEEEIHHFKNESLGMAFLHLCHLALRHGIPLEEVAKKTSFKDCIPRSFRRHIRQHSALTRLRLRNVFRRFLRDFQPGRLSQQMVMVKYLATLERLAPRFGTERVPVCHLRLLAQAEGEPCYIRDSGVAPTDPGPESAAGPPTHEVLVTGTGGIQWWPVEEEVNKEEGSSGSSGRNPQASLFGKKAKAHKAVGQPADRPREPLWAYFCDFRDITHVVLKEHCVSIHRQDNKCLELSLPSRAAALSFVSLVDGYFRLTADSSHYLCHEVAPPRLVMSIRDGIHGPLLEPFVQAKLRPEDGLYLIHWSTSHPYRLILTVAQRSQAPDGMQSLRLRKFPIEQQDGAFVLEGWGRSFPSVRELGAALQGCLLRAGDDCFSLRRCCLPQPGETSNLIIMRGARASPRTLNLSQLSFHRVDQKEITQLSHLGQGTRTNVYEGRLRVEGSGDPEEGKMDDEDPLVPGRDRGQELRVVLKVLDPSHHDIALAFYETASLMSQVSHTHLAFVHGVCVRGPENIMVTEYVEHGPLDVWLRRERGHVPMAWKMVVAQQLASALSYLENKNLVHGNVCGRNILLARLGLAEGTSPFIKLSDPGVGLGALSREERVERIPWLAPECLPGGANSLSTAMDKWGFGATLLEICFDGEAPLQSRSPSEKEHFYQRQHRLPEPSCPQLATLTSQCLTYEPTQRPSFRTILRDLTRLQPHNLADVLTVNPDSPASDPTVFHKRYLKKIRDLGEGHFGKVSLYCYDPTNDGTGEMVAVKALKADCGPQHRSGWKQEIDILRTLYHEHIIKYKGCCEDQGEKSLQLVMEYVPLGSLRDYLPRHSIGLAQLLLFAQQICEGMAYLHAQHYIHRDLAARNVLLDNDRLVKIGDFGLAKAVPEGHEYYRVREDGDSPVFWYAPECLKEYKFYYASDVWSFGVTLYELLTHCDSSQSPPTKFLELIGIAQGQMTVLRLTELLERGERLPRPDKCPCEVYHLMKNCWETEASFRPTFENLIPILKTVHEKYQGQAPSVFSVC
protocol: Inhibition of TYK2 in human whole blood assessed as decrease in STAT4 phosphorylation preincubated for 30 mins followed by human IL-23 stimulation and measured after 20 mins by flow cytometry
Assay type: tissue-based

| line_notation | measurement_target | EC50 [µM] |
| --- | --- | --- |
| COCc1cc(-c2cn(C3COC3)c3cnc(NC(C)=O)cc23)nc([C@]2(OC)CCOC2)c1 | Non-receptor tyrosine-protein kinase TYK2 (Homo sapiens, UniProt P29597) | 0.16 |

* * *

Listed compounds paired with reported EC50
measurement_target: UniProt:O60674
Sequence (O60674 whole entry): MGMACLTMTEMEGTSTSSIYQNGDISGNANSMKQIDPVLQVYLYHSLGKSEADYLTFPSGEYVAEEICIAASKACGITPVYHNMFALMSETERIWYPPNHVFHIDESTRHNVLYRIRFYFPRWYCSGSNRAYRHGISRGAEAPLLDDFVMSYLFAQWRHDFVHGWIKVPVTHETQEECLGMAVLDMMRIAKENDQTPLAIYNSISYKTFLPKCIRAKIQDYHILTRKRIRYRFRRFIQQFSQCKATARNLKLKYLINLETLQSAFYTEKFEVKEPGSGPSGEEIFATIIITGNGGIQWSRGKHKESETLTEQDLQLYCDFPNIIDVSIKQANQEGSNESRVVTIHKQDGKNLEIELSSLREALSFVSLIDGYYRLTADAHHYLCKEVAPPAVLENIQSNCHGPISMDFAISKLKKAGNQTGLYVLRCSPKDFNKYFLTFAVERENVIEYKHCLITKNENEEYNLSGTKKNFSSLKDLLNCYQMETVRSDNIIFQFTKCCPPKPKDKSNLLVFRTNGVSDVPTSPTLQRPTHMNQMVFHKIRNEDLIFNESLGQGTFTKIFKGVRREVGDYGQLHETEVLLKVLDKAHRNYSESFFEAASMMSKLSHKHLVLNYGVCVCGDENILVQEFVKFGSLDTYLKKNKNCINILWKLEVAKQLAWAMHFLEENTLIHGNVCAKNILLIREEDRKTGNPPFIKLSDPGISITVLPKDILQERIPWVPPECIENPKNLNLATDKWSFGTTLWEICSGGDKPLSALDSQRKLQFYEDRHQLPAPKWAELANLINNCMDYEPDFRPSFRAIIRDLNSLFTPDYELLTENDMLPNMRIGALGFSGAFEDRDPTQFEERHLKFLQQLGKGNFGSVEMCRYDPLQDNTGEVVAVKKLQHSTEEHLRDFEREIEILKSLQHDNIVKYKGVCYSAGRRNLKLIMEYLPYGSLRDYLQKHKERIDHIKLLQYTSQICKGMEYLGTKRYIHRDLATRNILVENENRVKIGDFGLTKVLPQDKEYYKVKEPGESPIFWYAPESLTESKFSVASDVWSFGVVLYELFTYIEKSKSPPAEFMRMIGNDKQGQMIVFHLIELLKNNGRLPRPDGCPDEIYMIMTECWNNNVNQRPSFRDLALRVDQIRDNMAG
protocol: Inhibition of JAK2 in human UT7 cells assessed as reduction in erythropoietin induced STAT5 phosphorylation preincubated for 30 mins followed by erythropoietin stimulation and measured after 20 mins by AlphaScreen assay

| line_notation | EC50 |
| --- | --- |
| CC(=O)Nc1cc2c(-c3cccc(S(=O)(=O)N(C)C)c3)c[nH]c2cn1 | > 19 µM |
| COCc1cc(-c2cn(C3COC3)c3cnc(NC(C)=O)cc23)nc([C@]2(OC)CCOC2)c1 | > 20 µM |
| CO[C@@]1(c2cc(OCC[C@@H](C)O)cc(-c3cn(C)c4cnc(NC(C)=O)cc34)n2)CCOC1 | > 20 µM |
| CO[C@@]1(c2cc(O[C@@H](C)CCO)cc(-c3cn(C)c4cnc(NC(C)=O)cc34)n2)CCOC1 | > 20 µM |
